Listed compounds paired with reported IC50
tested on: influenza A virus (A/WSN/33 NanoLuc reporter virus) in A549 cells; experiment: microbe, parasite or virus in culture; assay type: cell-based; conditions: A549, isomers identified by X-ray analysis, read-out: IC50

compound	unit-text	IC50
COc1nc(=O)c(O)c2n1[C@H]([C@@H]1c3ccccc3CSc3ccccc31)CN(C(C)C)C2=O (single isomer, unassigned)	nM	34
COc1nc(=O)c(O)c2n1[C@@H]([C@H]1c3ccccc3CSc3ccccc31)CN(C(C)C)C2=O (single isomer, unassigned)	nM	2
COc1nc(=O)c(O)c2n1[C@H]([C@H]1c3ccccc3CSc3ccccc31)CN(C(C)C)C2=O (single isomer, unassigned)	nM	28
COc1nc(=O)c(O)c2n1[C@@H]([C@@H]1c3ccccc3CSc3ccccc31)CN(C(C)C)C2=O (single isomer, unassigned)	nM	4
